Recorded measurements of pIC50, one per entry
molecular target: BTK (Homo sapiens (Human), UniProt Q06187); experiment: In Vitro PD Assay in Human Whole Blood (pBTK assay); format: cell-based; settings: human heparinized whole blood, 37° C. for 30 min, total BTK capture and phosphotyrosine detection (ECL)
Sequence (Q06187 whole entry): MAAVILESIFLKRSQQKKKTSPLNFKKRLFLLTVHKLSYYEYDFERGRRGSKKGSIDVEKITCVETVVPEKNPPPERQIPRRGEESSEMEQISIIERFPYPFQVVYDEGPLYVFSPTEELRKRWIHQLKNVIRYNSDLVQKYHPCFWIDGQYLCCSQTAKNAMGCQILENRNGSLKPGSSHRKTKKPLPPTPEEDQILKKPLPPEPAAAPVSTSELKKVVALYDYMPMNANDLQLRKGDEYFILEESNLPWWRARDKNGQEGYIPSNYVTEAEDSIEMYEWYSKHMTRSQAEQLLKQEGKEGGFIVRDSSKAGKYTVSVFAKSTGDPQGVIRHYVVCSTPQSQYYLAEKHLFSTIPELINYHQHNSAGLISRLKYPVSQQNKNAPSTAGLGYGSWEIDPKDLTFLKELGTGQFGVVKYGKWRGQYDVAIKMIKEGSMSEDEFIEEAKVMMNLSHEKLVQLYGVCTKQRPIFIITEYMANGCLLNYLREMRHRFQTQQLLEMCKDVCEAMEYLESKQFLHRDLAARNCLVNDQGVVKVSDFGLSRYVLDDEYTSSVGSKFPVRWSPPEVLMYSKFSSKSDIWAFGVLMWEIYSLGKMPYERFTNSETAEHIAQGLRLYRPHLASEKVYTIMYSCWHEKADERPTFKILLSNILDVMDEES
pIC50: −log10 of the molar value.

The cases that follow already have their pIC50 on record.
{"columns": ["RECORD SMILES", "pIC50"],
 "data": [
  ["Cc1cc(-c2ncnc(Nc3cnn(C)c3)n2)c(F)cc1CNC(=O)c1noc(C(C)(C)C)n1", "6.30 to 7.00"],
  ["Cn1cc(Nc2ncnc(-c3ccc(CNC(=O)c4nc(C(C)(C)C)no4)c(Cl)c3)n2)cn1", "6.30 to 7.00"],
  ["Cn1ccc(Nc2ncnc(-c3ccc(CNC(=O)c4noc(C5(C)CC5)n4)c(Cl)c3F)n2)n1", "5.00 to 6.30"],
  ["Cc1cc(-c2ncnc(Nc3ccn(C)n3)n2)ccc1CNC(=O)c1cc(C(C)(C)C)on1", "5.00 to 6.30"],
  ["Cc1c(CNC(=O)c2noc(C3(C)CC3)n2)ccc(-c2ncnc(Nc3cnn(C)c3)n2)c1F", "> 7.00"],
  ["Cc1cc(-c2ncnc(Nc3cnn(C)c3)n2)ccc1CNC(=O)c1cn(C(C)(C)C)nn1", "6.30 to 7.00"],
  ["Cc1c([C@@H](C)NC(=O)c2nc(C(C)(C)C)no2)ccc(-c2ncnc(Nc3cnn(C)c3)n2)c1Cl", "6.30 to 7.00"],
  ["Cc1c(CNC(=O)c2nc(C(C)(C)C)no2)ccc(-c2ncnc(Nc3cnn(C)c3)n2)c1F", "> 7.00"],
  ["Cn1cc(Nc2ncnc(-c3ccc4c(c3)CN(C3COC3)CC[C@H]4NC(=O)c3cn(C(C)(C)C)nn3)n2)cn1", "> 7.00"],
  ["Cc1c([C@@H](C)NC(=O)c2cc(C(C)(C)C)on2)ccc(-c2ncnc(Nc3cnn(C)c3)n2)c1F", "6.30 to 7.00"]
]}

Exercise: I have this compound here, `Cc1c([C@@H](C)NC(=O)c2nc(C(C)(C)C)no2)ccc(-c2ncnc(Nc3cnn(C)c3)n2)c1F` , and I need its recorded pIC50.
Solution: > 7.00

Exercise: Next: `C[C@@H](NC(=O)c1noc(C(C)(C)C)n1)c1ccc(-c2ncnc(Nc3cnn(C)c3)n2)c(F)c1Cl`
Solution: > 7.00

Exercise: Next: `Cc1cc(-c2ncnc(Nc3ccn(C)n3)n2)ccc1CNC(=O)c1cc(C(C)(C)C)no1`
Solution: 5.00 to 6.30

Exercise: Next: `Cn1cc(Nc2ncnc(-c3ccc4c(c3F)CCCC[C@H]4NC(=O)c3noc(C(C)(C)C)n3)n2)cn1`
Solution: > 7.00

Exercise: Next: `Cc1cc(-c2ncnc(Nc3ccn(C)n3)n2)ccc1CNC(=O)c1noc(C(C)(C)CF)n1`
Solution: 6.30 to 7.00

* * *

biological target: UniProt:Q06187; experiment: In Vitro PD Assay in Human Whole Blood (pBTK assay); assay type: cell-based; conditions: human heparinized whole blood, 37° C. for 30 min, total BTK capture and phosphotyrosine detection (ECL)
pIC50: −log10 of the molar value.
QUANTITY MEASURED: pIC50

The cases that follow already have their pIC50 on record.
{"columns": ["RECORD SMILES", "pIC50"],
 "data": [
  ["Cc1c(CNC(=O)c2noc(C3(C(F)(F)F)CC3)n2)ccc(-c2ncnc(Nc3ccn(C)n3)n2)c1F", "5.00 to 6.30"],
  ["Cn1ccc(Nc2ncnc(-c3ccc(CNC(=O)c4nc(C(C)(C)C)no4)c(C(F)(F)F)c3F)n2)n1", "5.00 to 6.30"],
  ["C[C@@H](NC(=O)c1noc(C(C)(C)C)n1)c1ccc(-c2ncnc(Nc3ccn(C)n3)n2)c(F)c1C(F)F", "5.00 to 6.30"]
]}

Exercise: I have this molecule here, `Cn1ccc(Nc2ncnc(-c3cc4c(cc3F)[C@H](NC(=O)c3noc(C(C)(C)C)n3)CCCC4)n2)n1` , and I need its recorded pIC50.
Solution: 6.30 to 7.00

* * *

Recorded measurements of pIC50, one per entry
target: BTK (Homo sapiens (Human)); experiment: In Vitro PD Assay in Human Whole Blood (pBTK assay); type: cell-based; settings: human heparinized whole blood, 37° C. for 30 min, total BTK capture and phosphotyrosine detection (ECL)
pIC50: −log10 of the molar value.

The cases that follow already have their pIC50 on record.
{"columns": ["RECORD SMILES", "pIC50"],
 "data": [
  ["Cc1cc(-c2ncnc(Nc3cnn(C)c3)n2)ccc1CNC(=O)c1noc(C2(C)CC2)n1", "6.30 to 7.00"],
  ["Cc1cc(-c2ncnc(Nc3cnn(C)c3)n2)ccc1CNC(=O)c1cc(C(C)(C)C)on1", "6.30 to 7.00"],
  ["Cn1cc(Nc2ncnc(-c3ccc(CNC(=O)c4noc(C(C)(C)C)n4)c(Cl)c3F)n2)cn1", "> 7.00"],
  ["Cc1cc(-c2ncnc(Nc3cnn(C)c3)n2)c(F)cc1CNC(=O)c1cc(C(C)(C)C)on1", "5.00 to 6.30"],
  ["C[C@@H](NC(=O)c1nc(C(C)(C)C)no1)c1ccc(-c2ncnc(Nc3cnn(C)c3)n2)c(F)c1Cl", "> 7.00"]
]}

Exercise: I have this compound here, `Cc1c([C@@H](C)NC(=O)c2nc(C(C)(C)C)no2)ccc(-c2ncnc(Nc3ccn(C)n3)n2)c1F` , and I need its recorded pIC50.
Solution: 6.30 to 7.00

Exercise: Next: `Cc1cc(-c2ncnc(Nc3cnn(C)c3)n2)c(F)cc1CNC(=O)c1nc(C2(CF)CC2)no1`
Solution: 6.30 to 7.00

Exercise: Next: `Cc1c([C@@H](C)NC(=O)c2noc(C(C)(C)C)n2)ccc(-c2ncnc(Nc3ccn(C)n3)n2)c1F`
Solution: 6.30 to 7.00

Exercise: Next: `Cc1c([C@@H](C)NC(=O)c2cc(C(C)(C)C)no2)ccc(-c2ncnc(Nc3cnn(C)c3)n2)c1F`
Solution: 6.30 to 7.00

Exercise: Next: `Cc1c(CNC(=O)c2noc(C(C)(C)C)n2)ccc(-c2ncnc(Nc3cnn(C)c3)n2)c1F`
Solution: > 7.00

Exercise: Next: `Cc1c(CNC(=O)c2nc(C3(CF)CC3)no2)ccc(-c2ncnc(Nc3cnn(C)c3)n2)c1F`
Solution: > 7.00

Exercise: Next: `Cn1ccc(Nc2ncnc(-c3ccc4c(c3)CCCC[C@H]4NC(=O)c3noc(C(C)(C)CF)n3)n2)n1`
Solution: 6.30 to 7.00

* * *

biological target: BTK (Homo sapiens (Human)); test: In Vitro BTK Kinase Assay: BTK-POLYGAT-LS ASSAY; assay type: biochemical; conditions: fluorescein-labeled polyGAT peptide 100 nM, BTK enzyme 0.25 nM, 30 minutes, TRF
QUANTITY MEASURED: IC50

The cases that follow already have their IC50 on record.
{"columns": ["RECORD SMILES", "RESULT"],
 "data": [
  ["Cc1cc(-c2ncnc(Nc3cnn(C)c3)n2)c(F)cc1CNC(=O)c1noc(C2(CF)CC2)n1", "< 1 nM"],
  ["Cc1cc(-c2ncnc(Nc3ccn(C)n3)n2)ccc1CNC(=O)c1noc(C(C)(C)CF)n1", "1 to 10 nM"]
]}

Exercise: I have this molecule here, `Cc1cc(-c2ncnc(Nc3ccn(C)n3)n2)ccc1CNC(=O)c1cnc(C(C)(C)C)o1` , and I need its recorded IC50.
Solution: 1 to 10 nM

Exercise: Next: `Cn1ccc(Nc2ncnc(-c3ccc(CNC(=O)c4noc(C(C)(C)C)n4)c(Cl)c3F)n2)n1`
Solution: < 1 nM

Exercise: Next: `Cc1cc(-c2ncnc(Nc3cnn(C)c3)n2)ccc1CNC(=O)c1cnc(C(C)(C)C)o1`
Solution: < 1 nM

Exercise: Next: `Cc1c(CNC(=O)c2ccn(C(C)(C)C)n2)ccc(-c2ncnc(Nc3cnn(C)c3)n2)c1F`
Solution: < 1 nM

Exercise: Next: `Cc1cc(-c2ncnc(Nc3cnn(C)c3)n2)ccc1CNC(=O)c1cc(C(C)(C)C)no1`
Solution: < 1 nM

Exercise: Next: `Cn1cc(Nc2ncnc(-c3cc4c(cc3F)[C@H](NC(=O)c3noc(C(C)(C)C)n3)CCCC4)n2)cn1`
Solution: < 1 nM

Exercise: Next: `Cn1ccc(Nc2ncnc(-c3ccc4c(c3F)CCCC[C@H]4NC(=O)c3nc(C(C)(C)C)no3)n2)n1`
Solution: < 1 nM

* * *

molecular target: BTK (Homo sapiens (Human)); assay: In Vitro BTK Kinase Assay: BTK-POLYGAT-LS ASSAY; assay type: biochemical; conditions: fluorescein-labeled polyGAT peptide 100 nM, BTK enzyme 0.25 nM, 30 minutes, TRF
QUANTITY MEASURED: IC50

The cases that follow already have their IC50 on record.
{"columns": ["RECORD SMILES", "IC50"],
 "data": [
  ["Cc1c(CNC(=O)c2coc(C(C)(C)C)n2)ccc(-c2ncnc(Nc3ccn(C)n3)n2)c1F", "< 1 nM"],
  ["Cc1c(CNC(=O)c2noc(C3(C)CC3)n2)ccc(-c2ncnc(Nc3ccn(C)n3)n2)c1F", "< 1 nM"],
  ["Cc1c([C@@H](C)NC(=O)c2nc(C(C)(C)C)no2)ccc(-c2ncnc(Nc3cnn(C)c3)n2)c1Cl", "< 1 nM"],
  ["Cc1c(CNC(=O)c2nc(C3(CF)CC3)no2)ccc(-c2ncnc(Nc3ccn(C)n3)n2)c1F", "1 to 10 nM"],
  ["Cc1c([C@@H](C)NC(=O)c2cc(C(C)(C)C)on2)ccc(-c2ncnc(Nc3cnn(C)c3)n2)c1F", "< 1 nM"],
  ["Cc1c(CNC(=O)c2noc(C3(C)CC3)n2)ccc(-c2ncnc(Nc3cnn(C)c3)n2)c1F", "< 1 nM"],
  ["C[C@@H](NC(=O)c1noc(C(C)(C)C)n1)c1ccc(-c2ncnc(Nc3cnn(C)c3)n2)c(F)c1Cl", "< 1 nM"],
  ["C[C@@H](NC(=O)c1noc(C(C)(C)C)n1)c1ccc(-c2ncnc(Nc3ccn(C)n3)n2)c(F)c1C(F)F", "1 to 10 nM"],
  ["Cc1cc(-c2ncnc(Nc3cnn(C)c3)n2)ccc1CNC(=O)c1nnn(C(C)(C)C)n1", "< 1 nM"],
  ["Cn1ccc(Nc2ncnc(-c3ccc(CNC(=O)c4nc(C(C)(C)C)no4)c(C(F)F)c3F)n2)n1", "1 to 10 nM"]
]}

Exercise: I have this compound here, `Cc1c(CNC(=O)c2nc(C3(CF)CC3)no2)ccc(-c2ncnc(Nc3cnn(C)c3)n2)c1F` , and I need its recorded IC50.
Solution: < 1 nM

Exercise: Next: `Cn1ccc(Nc2ncnc(-c3cc4c(cc3F)[C@H](NC(=O)c3nc(C(C)(C)C)no3)CCCC4)n2)n1`
Solution: < 1 nM

Exercise: Next: `Cc1c([C@@H](C)NC(=O)c2noc(C(C)(C)C)n2)ccc(-c2ncnc(Nc3ccn(C)n3)n2)c1F`
Solution: < 1 nM

Exercise: Next: `Cc1c(CNC(=O)c2noc(C(C)(C)C)n2)ccc(-c2ncnc(Nc3cnn(C)c3)n2)c1F`
Solution: < 1 nM

Exercise: Next: `Cn1ccc(Nc2ncnc(-c3ccc4c(c3)CN(C3COC3)CC[C@H]4NC(=O)c3coc(C(C)(C)C)n3)n2)n1`
Solution: 1 to 10 nM

Exercise: Next: `Cn1ccc(Nc2ncnc(-c3ccc(CNC(=O)c4nc(C(C)(C)C)no4)c(Cl)c3F)n2)n1`
Solution: < 1 nM

Exercise: Next: `Cc1cc(-c2ncnc(Nc3cnn(C)c3)n2)c(F)cc1CNC(=O)c1noc(C2(C)CC2)n1`
Solution: < 1 nM

Exercise: Next: `Cn1cc(Nc2ncnc(-c3ccc(CNC(=O)c4noc(C(C)(C)C)n4)c(Cl)c3F)n2)cn1`
Solution: < 1 nM

Exercise: Next: `Cn1ccc(Nc2ncnc(-c3ccc(CNC(=O)c4noc(C(C)(C)CF)n4)c(C4CC4)c3)n2)n1`
Solution: < 1 nM

Exercise: Next: `Cn1ccc(Nc2ncnc(-c3ccc4c(c3)CCCC[C@H]4NC(=O)c3noc(C(C)(C)C)n3)n2)n1`
Solution: < 1 nM

Exercise: Next: `Cc1c(-c2ncnc(Nc3ccn(C)n3)n2)ccc([C@@H](C)NC(=O)c2noc(C(C)(C)C)n2)c1Cl`
Solution: 1 to 10 nM
